experiment: Quantitative High-Throughput drug screen in 47 multiple myeloma cell lines against the NCATS MIPE library collection: KMS34_JCRB cell viability assay (AID 1918985); conditions: KMS34 myeloma viability, CellTiter-Glo ATP luminescence, 48 h; series mostly up to 45.8 µM; note: nearly all actives have a fitted effect of over 40% in size
Results filed as inconclusive are left out. Activity calls are given as the source filed them. Calls come from the whole dose curve; as a rule, active = well fitted cell-killing curve with a large enough effect; inconclusive = small, poorly fitted or top-dose-only effect, or effect the other way; inactive = no such curve, though single readings can be large or run the other way.
# output must be one of active, inactive

Entry CO[C@H]1CCC(O[C@H]2C[C@H]([C@]3(C)CC[C@]4(C[C@H](O)[C@@H](C)[C@@H]([C@@H](C)C=C(C)C(=O)[C@H](C)C[C@H](C)C(=O)O)O4)O3)O[C@]3(O[C@@H]([C@H]4O[C@@](O)(CO)[C@H](C)C[C@H]4C)C[C@H]3C)[C@H]2C)O[C@H]1C (some centres not stated) : call = ?
active

So what was the verdict on Cc1c(C(=O)c2cccc3ccccc23)c2cccc3c2n1[C@H](CN1CCOCC1)CO3 in this test?
active

Kindly provide the recorded test outcome for the following compound: O=C(Oc1ccc([N+](=O)[O-])cc1)N1CCN(Cc2cccc(Oc3ccccc3)c2)CC1
inactive

Please indicate how the test categorized O=C1C=CC[C@@H]2[C@H]3CCCN4CCC[C@@H](CN12)[C@@H]34 .
inactive

What outcome does the record of this test show for O=C(Nc1ccncc1)C(=O)c1cn(Cc2ccc(Cl)cc2)c2ccccc12 ?
active

Just curious, what result did O=C(N[C@@H](COc1ccc2[nH]c(=O)[nH]c2c1)c1ccccc1)c1cccn(Cc2ccc(F)c(F)c2)c1=O get here?
inactive

Tell me the assay call for CCN1CCN(C(=O)Cc2ccc(Nc3ncc(F)c(Nc4ccc(C(=O)Nc5ccccc5Cl)cc4)n3)cc2)CC1 please.
active

Provenance of the data: PubChem BioAssay (NCATS)
